assay_summary: Circular dichroism (CD) helicity of peptide in solution
Type: physicochemical
conditions: 25° C.
Positions of bridges follow the written chain, without caps; N, C: chain ends. Non-standard residues stand in square brackets, D forms with d. Residues, ends and D or L forms follow the SMILES beside them. dPhe(4-CF3) = N[C@H](Cc1ccc(C(F)(F)F)cc1)C(=O)O; dTrp(6-F) = N[C@H](Cc1c[nH]c2cc(F)ccc12)C(=O)O; R5 = C=CCCC[C@@](C)(N)C(=O)O; S5 = C=CCCC[C@](C)(N)C(=O)O
Recorded CD (% helicity) for the following compounds
Report only the number, with the unit % understood.

compound="CC(C)C[C@H]1NC(=O)[C@@H](CC(C)C)NC(=O)[C@@](C)(NC(=O)[C@@H](CCC(=O)O)NC(=O)[C@@H](Cc2ccc(C(F)(F)F)cc2)NC(=O)[C@@H](CC(N)=O)NC(=O)[C@@]2(C)CCC/C=C\\CCC[C@@](C)(N)C(=O)N[C@H](C)C(=O)N[C@H](Cc3c[nH]c4cc(F)ccc34)C(=O)N[C@H](Cc3ccc(O)cc3)C(=O)N2)CCC/C=C\\CCC[C@](C)(C(N)=O)NC1=O [^DPMI-δ (1-5,9-12)] (H-[R5][dA][dTrp(6-F)][dY][R5][dN][dPhe(4-CF3)][dE][S5][dL][dL][R5]-NH2; staple (Z) 1-5, 9-12)" value_measured=20

From here, focus on the item given below.
In: Give the value of CD (% helicity) reported for the following: CC(C)C[C@@H](NC(=O)[C@@H](CC(C)C)NC(=O)[C@@H](CCCCN)NC(=O)[C@@H](CCC(=O)O)NC(=O)[C@@H](Cc1ccc(C(F)(F)F)cc1)NC(=O)[C@@]1(C)CCC/C=C\CCC[C@@](C)(NC(=O)[C@H](N)[C@H](C)O)C(=O)N[C@H](Cc2c[nH]c3cc(F)ccc23)C(=O)N[C@H](Cc2ccc(O)cc2)C(=O)N[C@H](C)C(=O)N1)C(=O)N[C@H](CCCNC(=N)N)C(N)=O [^DPMI-δ (2-6)] (H-[dT][R5][dTrp(6-F)][dY][dA][R5][dPhe(4-CF3)][dE][dK][dL][dL][dR]-NH2; staple (Z) 2-6)
Out: 46.7

----------
assay_summary: Circular dichroism (CD) helicity of peptide in solution
Type: physicochemical
conditions: 25° C.
Starred links: 1 amine or outer side, 2 acyl side, 3 side chain; linkers in the order of their positions; H or OH if unused. Positions of bridges follow the written chain, without caps; N, C: chain ends. Non-standard residues stand in square brackets, D forms with d. Residues, ends and D or L forms follow the SMILES beside them. dPhe(4-CF3) = N[C@H](Cc1ccc(C(F)(F)F)cc1)C(=O)O; dTrp(6-F) = N[C@H](Cc1c[nH]c2cc(F)ccc12)C(=O)O; X1 = C[C@](CCCCC=[*:3])(N[*:1])C(=O)[*:2]; R5 = C=CCCC[C@@](C)(N)C(=O)O
recorded_endpoint: CD (% helicity) (%)
Report only the number, with the unit % understood.

In: Give the value of CD (% helicity) reported for the following: CC(C)C[C@@H](NC(=O)[C@@H](CC(C)C)NC(=O)[C@@]1(C)CCCC/C=C\CCC[C@@](C)(NC(=O)[C@@H](Cc2ccc(O)cc2)NC(=O)[C@@H](Cc2c[nH]c3cc(F)ccc23)NC(=O)[C@@H](C)NC(=O)[C@H](N)[C@H](C)O)C(=O)N[C@H](CC(N)=O)C(=O)N[C@H](Cc2ccc(C(F)(F)F)cc2)C(=O)N[C@H](CCC(=O)O)C(=O)N1)C(=O)N[C@H](CCCNC(=N)N)C(N)=O [^DPMI-δ (5-9)] (H-[dT][dA][dTrp(6-F)][dY][R5][dN][dPhe(4-CF3)][dE][X1][dL][dL][dR]-NH2; staple (Z) 5-9)
Out: 38.0
